target: von Hippel-Lindau disease tumor suppressor/AKT (Homo sapiens) (UniProt P31751+Q9Y243+P31749+P40337); test: Protac activity at VHL/AKT in human BT-474 cells assessed as reduction in total AKT protein level at 1 to 10 uM measured after 24 hrs by Western blot analysis; type: cell-based; settings: dose 1-10 µM
Calls of active or inactive are those of the source. The rule behind the calls is not given here.
Choose one outcome from this list and give only that: 1 (active), -1 (inactive)

Previously resolved entries follow.
So what was the verdict on Cc1ncsc1-c1ccc(CNC(=O)[C@@H]2C[C@@H](O)CN2C(=O)[C@@H](NC(=O)CCOCCOCCOCCOCCOCCC(=O)N2CCN(CC[C@H](NC(=O)C3(N)CCN(c4ncnc5[nH]ccc45)CC3)c3ccc(Cl)cc3)CC2)C(C)(C)C)cc1 in this test?
-1

Query Cc1ncsc1-c1ccc(CNC(=O)[C@@H]2C[C@@H](O)CN2C(=O)[C@@H](NC(=O)COCCOCCOCC(=O)N2CCN(CC[C@H](NC(=O)C3(N)CCN(c4ncnc5[nH]ccc45)CC3)c3ccc(Cl)cc3)CC2)C(C)(C)C)cc1 next
-1

Okay, and Cc1ncsc1-c1ccc(CNC(=O)[C@@H]2C[C@@H](O)CN2C(=O)[C@@H](NC(=O)CCCC(=O)N2CCN(CC[C@H](NC(=O)C3(N)CCN(c4ncnc5[nH]ccc45)CC3)c3ccc(Cl)cc3)CC2)C(C)(C)C)cc1 ?
-1

New cases:
How was Cc1ncsc1-c1ccc(CNC(=O)[C@@H]2C[C@@H](O)CN2C(=O)[C@@H](NC(=O)CCCCC(=O)N2CCN(CC[C@H](NC(=O)C3(N)CCN(c4ncnc5[nH]ccc45)CC3)c3ccc(Cl)cc3)CC2)C(C)(C)C)cc1 classified in this test?
1

Now the compound Cc1ncsc1-c1ccc(CNC(=O)[C@@H]2C[C@@H](O)CN2C(=O)[C@@H](NC(=O)COCCOCC(=O)N2CCN(CC[C@H](NC(=O)C3(N)CCN(c4ncnc5[nH]ccc45)CC3)c3ccc(Cl)cc3)CC2)C(C)(C)C)cc1
-1

One more compound: Cc1ncsc1-c1ccc(CNC(=O)[C@@H]2C[C@@H](O)CN2C(=O)[C@@H](NC(=O)COCC(=O)N2CCN(CC[C@H](NC(=O)C3(N)CCN(c4ncnc5[nH]ccc45)CC3)c3ccc(Cl)cc3)CC2)C(C)(C)C)cc1
1
